Molecular target: human ACC2 (Homo sapiens, UniProt O00763)
Construct: made in house; host or cells: insect cells (baculoviral expression system)
Sequence (O00763 129-2458 limits assumed): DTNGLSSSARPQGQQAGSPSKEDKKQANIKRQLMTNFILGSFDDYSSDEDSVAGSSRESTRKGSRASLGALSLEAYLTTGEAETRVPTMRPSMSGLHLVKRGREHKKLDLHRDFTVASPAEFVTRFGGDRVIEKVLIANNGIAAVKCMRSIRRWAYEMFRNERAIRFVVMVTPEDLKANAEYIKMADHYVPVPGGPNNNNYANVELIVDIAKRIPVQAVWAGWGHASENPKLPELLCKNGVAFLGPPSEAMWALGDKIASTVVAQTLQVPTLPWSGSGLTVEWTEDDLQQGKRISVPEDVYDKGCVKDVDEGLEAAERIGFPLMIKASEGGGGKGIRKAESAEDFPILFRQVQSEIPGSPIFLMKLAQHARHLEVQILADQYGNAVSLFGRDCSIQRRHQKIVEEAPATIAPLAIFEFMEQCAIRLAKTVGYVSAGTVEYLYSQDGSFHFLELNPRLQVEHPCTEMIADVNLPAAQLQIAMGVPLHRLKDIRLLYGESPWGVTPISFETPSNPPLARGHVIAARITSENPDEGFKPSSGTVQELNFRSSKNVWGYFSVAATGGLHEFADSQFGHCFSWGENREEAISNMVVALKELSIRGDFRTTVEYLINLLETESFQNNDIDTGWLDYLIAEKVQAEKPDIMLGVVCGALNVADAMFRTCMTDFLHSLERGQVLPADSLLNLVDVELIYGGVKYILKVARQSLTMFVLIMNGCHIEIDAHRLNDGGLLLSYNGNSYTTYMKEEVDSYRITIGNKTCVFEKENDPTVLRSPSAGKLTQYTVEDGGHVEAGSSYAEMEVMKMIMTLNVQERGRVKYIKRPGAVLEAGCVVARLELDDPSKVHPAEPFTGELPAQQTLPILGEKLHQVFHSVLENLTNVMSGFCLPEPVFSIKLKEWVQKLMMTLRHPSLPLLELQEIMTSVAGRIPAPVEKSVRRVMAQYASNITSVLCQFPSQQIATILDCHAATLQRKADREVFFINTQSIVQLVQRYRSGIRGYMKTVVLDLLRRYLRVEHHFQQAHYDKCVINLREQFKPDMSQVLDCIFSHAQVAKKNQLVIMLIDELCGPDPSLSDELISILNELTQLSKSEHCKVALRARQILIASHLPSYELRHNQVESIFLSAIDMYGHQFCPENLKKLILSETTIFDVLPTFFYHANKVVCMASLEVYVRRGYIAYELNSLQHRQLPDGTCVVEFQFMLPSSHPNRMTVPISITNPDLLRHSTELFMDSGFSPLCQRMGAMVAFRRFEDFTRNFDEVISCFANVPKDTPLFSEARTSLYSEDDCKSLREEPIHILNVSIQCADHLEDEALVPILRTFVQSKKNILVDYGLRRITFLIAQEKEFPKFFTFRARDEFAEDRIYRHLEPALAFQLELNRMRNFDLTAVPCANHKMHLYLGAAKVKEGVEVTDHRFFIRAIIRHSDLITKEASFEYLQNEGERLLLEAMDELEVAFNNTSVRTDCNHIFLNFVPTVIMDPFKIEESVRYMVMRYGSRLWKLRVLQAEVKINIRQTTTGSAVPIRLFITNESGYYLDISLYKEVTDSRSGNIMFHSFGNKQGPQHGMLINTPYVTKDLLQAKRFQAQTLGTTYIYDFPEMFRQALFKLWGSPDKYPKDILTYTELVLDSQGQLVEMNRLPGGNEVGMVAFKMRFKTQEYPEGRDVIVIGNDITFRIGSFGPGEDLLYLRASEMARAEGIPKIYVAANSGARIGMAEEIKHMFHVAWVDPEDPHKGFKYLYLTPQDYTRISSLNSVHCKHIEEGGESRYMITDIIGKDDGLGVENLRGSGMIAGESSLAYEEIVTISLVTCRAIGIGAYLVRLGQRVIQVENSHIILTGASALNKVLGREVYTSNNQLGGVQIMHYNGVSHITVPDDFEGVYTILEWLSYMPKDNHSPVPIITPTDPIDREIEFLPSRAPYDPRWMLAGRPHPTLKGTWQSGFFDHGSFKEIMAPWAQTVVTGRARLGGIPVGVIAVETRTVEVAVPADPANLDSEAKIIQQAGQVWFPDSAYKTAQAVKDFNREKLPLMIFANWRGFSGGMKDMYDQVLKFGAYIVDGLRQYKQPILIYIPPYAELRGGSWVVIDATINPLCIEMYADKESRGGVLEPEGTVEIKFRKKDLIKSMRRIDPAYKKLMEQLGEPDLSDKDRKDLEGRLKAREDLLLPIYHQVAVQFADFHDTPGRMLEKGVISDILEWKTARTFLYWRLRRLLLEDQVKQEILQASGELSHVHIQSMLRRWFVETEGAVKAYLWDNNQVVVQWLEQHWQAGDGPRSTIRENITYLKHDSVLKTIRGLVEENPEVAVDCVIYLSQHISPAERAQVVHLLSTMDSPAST
Assay: ACC2 assay, spectrophotometric 384 well assay (NADH-linked, coupled lactate dehydrogenase/pyruvate kinase)
Format: biochemical
Conditions: ACC2 assay, hACC2 construct lacking 128 N-terminal amino acids, 25° C., 340 nm; read-out: IC50
property.name: IC50 (µM)
Numbers only, in µM.

Some compounds with recorded IC50:
{"columns": ["compound", "uom", "obs.value"],
 "data": [
  ["CC(=O)N[C@@H](C)c1ccc(C2CCN(c3ncc(-c4ccccc4)c(C)n3)CC2)cc1", "µM", 0.15],
  ["CC(=O)N[C@@H](C)c1ccc(C2CCN(c3ncc(-c4ccc(C#N)cc4C)cn3)CC2)cc1", "µM", 0.53],
  ["CCC(C)Oc1ccc(N2CCC(c3ccc([C@H](C)NC(=O)N(C)C)cc3)CC2)cc1 (stereo partly shown)", "µM", 0.14]
]}

I looked up CC(=O)N[C@@H](C)c1ccc(C2CCN(c3ncc(C(=O)N4CCc5ccccc54)cn3)CC2)cc1 and its IC50 for human ACC2 (Homo sapiens, UniProt O00763) was 1.6

* * *

Biological target: human ACC2 (Homo sapiens)
Construct: made in house; host or cells: insect cells (baculoviral expression system)
Assay: ACC2 assay, spectrophotometric 384 well assay (NADH-linked, coupled lactate dehydrogenase/pyruvate kinase)
Assay type: biochemical
Details: ACC2 assay, hACC2 construct lacking 128 N-terminal amino acids, 25° C., 340 nm; read-out: IC50
property.name: IC50 (nM)
Give bare numbers, in nM.

Some compounds with recorded IC50:
{"columns": ["compound", "property.name", "obs.value"],
 "data": [
  ["CC(=O)N[C@@H](C)c1ccc(C2CCN(c3ccc(NCC(C)C)cc3)CC2)cc1 [Example 24.3]", "IC50", 1100],
  ["CC(=O)N[C@@H](C)c1ccc(C2CCN(c3ncc(-c4ccc(F)cc4F)cn3)CC2)cc1 [Example 10.53]", "IC50", 80]
]}

// each compound listed below needs its IC50
1. CC(=O)N[C@@H](C)c1ccc(C2CCN(c3cc(OC4CCCC4)ncn3)CC2)cc1 [Example 11.7]
2. CC(=O)N[C@@H](C)c1ccc(C2CCN(c3ccnc(OCC4CCCC4)n3)CC2)cc1 [Example 11.9]
3. CCCC(C)Oc1ccc(N2CCC(c3ccc([C@H](C)NC(C)=O)cc3)CC2)cc1 (some centres unmarked) [Example 9.19]

[170, 380, 140]

// each compound listed below needs its IC50
1. CC(=O)N[C@@H](C)c1ccc(C2CCN(c3ncc(-c4cc(C)ccc4C)cn3)CC2)cc1 [Example 10.54]
2. CCC(=O)N[C@@H](C)c1ccc(C2CCN(c3ccc(OC4CC4)cc3)CC2)cc1 [Example 1.151]

1. 420
2. 110

Kindly note the recorded IC50 for CC(=O)N[C@@H](C)c1ccc(C2CCN(c3ncc(-c4ccc(C)cc4F)cn3)CC2)cc1 [Example 10.129] , which is 340

* * *

Target: human ACC2 (Homo sapiens, UniProt O00763)
Construct: made in house; host or cells: insect cells (baculoviral expression system)
Experiment: ACC2 assay, spectrophotometric 384 well assay (NADH-linked, coupled lactate dehydrogenase/pyruvate kinase)
Type: biochemical
Conditions: ACC2 assay, hACC2 construct lacking 128 N-terminal amino acids, 25° C., 340 nm; read-out: IC50
property.name: IC50 (nM)
Numbers only, in nM.

// each molecule listed below needs its IC50
1. CCOc1ccc(N2CCC(c3ccc([C@H](C)NC(=O)C4CC4)cc3)CC2)nc1
2. CCOC(=O)C1(Oc2ccc(N3CCC(c4ccc([C@H](C)NC(C)=O)cc4)CC3)cc2)CCC1
3. CC(=O)N[C@@H](C)c1ccc(C2CCN(c3ncc(C(=O)NCC4CCCCN4)cn3)CC2)cc1 (some centres unmarked)
4. CCOc1ccc(N2CCC(c3ccc([C@H](C)NC(=O)C4(C)CC4)cc3)CC2)cc1
5. CC(=O)N[C@@H](C)c1ccc(C2CCN(c3ccc(C(C)(F)F)cn3)CC2)cc1

1: 860; 2: 100; 3: 10200; 4: 150; 5: 3200

// each molecule listed below needs its IC50
1. CC(=O)N[C@@H](C)c1ccc(C2CCN(c3ccnc(OCCC(C)C)c3)CC2)cc1
2. CC(=O)N[C@@H](C)c1ccc(C2CCN(c3ncc(-c4cccc5cc[nH]c45)cn3)CC2)cc1
3. COC1CCN(C(=O)c2cnc(N3CCC(c4ccc([C@H](C)NC(C)=O)cc4)CC3)nc2)CC1
4. COc1cc(N2CCC(c3ccc([C@H](C)NC(C)=O)cc3)CC2)ccc1Cl
5. CCOc1ccc(N2CCC(c3ccc([C@H](C)NC(=O)CCC#N)cc3)CC2)cc1
6. CC(=O)N[C@@H](C)c1ccc(C2CCN(c3ccc(OC(C)c4ccccc4)cc3)CC2)cc1 (some centres unmarked)

220
150
5200
3100
1300
210

// each molecule listed below needs its IC50
1. CC(=O)N[C@@H](C)c1ccc(C2CCN(c3ncc(-c4ccc(CC#N)cc4)cn3)CC2)cc1
2. CC(=O)N[C@@H](C)c1ccc(C2CCN(c3cccc(OCc4ccccc4)c3)CC2)cc1
3. CCOc1cccc(-c2nccc(N3CCC(c4ccc([C@H](C)NC(C)=O)cc4)CC3)n2)c1
4. CC(=O)N[C@@H](C)c1ccc(C2CCN(c3ncc(-c4ccccc4C#N)cn3)CC2)cc1

1: 180; 2: 550; 3: 390; 4: 640
